Data provenance is patent US11014917B2.

assay system: human SGLT1 (Homo sapiens, UniProt P13866)
Sequence (P13866 whole entry): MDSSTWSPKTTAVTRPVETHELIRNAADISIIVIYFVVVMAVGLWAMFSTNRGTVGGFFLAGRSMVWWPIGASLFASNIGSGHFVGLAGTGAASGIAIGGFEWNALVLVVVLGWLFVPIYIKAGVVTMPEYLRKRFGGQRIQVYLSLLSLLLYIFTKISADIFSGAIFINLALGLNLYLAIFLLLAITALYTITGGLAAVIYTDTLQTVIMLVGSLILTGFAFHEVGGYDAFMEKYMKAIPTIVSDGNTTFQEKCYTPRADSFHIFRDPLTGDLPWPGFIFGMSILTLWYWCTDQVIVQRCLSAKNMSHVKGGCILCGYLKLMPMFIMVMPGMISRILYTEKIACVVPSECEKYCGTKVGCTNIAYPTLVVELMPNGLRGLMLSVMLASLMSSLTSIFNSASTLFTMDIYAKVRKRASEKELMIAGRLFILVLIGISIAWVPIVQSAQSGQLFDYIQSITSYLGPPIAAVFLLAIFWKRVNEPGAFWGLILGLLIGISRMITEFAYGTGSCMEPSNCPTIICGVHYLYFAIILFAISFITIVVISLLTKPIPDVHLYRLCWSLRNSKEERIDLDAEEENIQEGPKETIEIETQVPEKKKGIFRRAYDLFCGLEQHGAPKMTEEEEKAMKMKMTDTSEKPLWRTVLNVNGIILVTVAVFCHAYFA
measurement protocol: SGLT1 assay: Na-dependent 14C-AMG uptake in CHO-K1 cells stably expressing human SGLT1
experimental context: average if tested more than once
pIC50: −log10 of the molar value.
Threshold rule: pIC50 greater than or equal to 7 is 1; below that, 0.

Worked cases, answers included:
• OC[C@H]1O[C@@H](c2cc(Cc3cc4ccccc4s3)c3c(c2O)CCO3)[C@H](O)[C@@H](O)[C@@H]1F [Compound 59] = 1
• [2H]C([2H])(c1ccc2c(c1)OCCO2)c1cc([C@@H]2O[C@H](CO)[C@@H](F)[C@H](O)[C@H]2O)ccc1Cl [Compound 166] = 0

For this compound, is measured pIC50 7 or higher? COc1c([C@@H]2O[C@H](CO)[C@@H](F)[C@H](O)[C@H]2O)cc(Cc2ccc3c(c2)N(C)CCC3)c2c1CCO2 [Compound 108]
0

Cool, now Cc1c(Cc2cc3ccccc3s2)cc([C@@H]2O[C@H](CO)[C@@H](F)[C@H](O)[C@H]2O)c2c1CCO2 [Compound 68]
1

---

assay system: human SGLT1 (Homo sapiens, UniProt P13866)
Construct: expressed in transfected cells
measurement protocol: SGLT1 assay: Na-dependent 14C-AMG uptake in CHO-K1 cells stably expressing human SGLT1
Format: cell-based
experimental context: @ 0.3 μM
// reported inhibition at 0.3 µM per item

# example entries with known answers
• Cc1ccc([C@@H]2O[C@H](CO)[C@@H](F)[C@H](O)[C@H]2O)cc1Cc1cc2c(s1)CCN(C#N)C2 = 29%
• COc1c(Cc2ccc3c(c2)CCCO3)cc([C@@H]2O[C@H](CO)[C@@H](F)[C@H](O)[C@H]2O)c2c1CCO2 = 21.7%
• CCOc1c(Cc2ccc3c(c2)OCCO3)cc([C@@H]2O[C@H](CO)[C@@H](F)[C@H](O)[C@H]2O)c2c1CCO2 = 27.6%
• COc1cc(O)c([C@@H]2O[C@H](CC#N)[C@@H](F)[C@H](O)[C@H]2O)cc1Cc1cc2ccccc2s1 = 62.7%

human SGLT1 (Homo sapiens, UniProt P13866) / inhibition at 0.3 µM / "Cc1cc(O)c([C@@H]2O[C@H](CC#N)[C@@H](F)[C@H](O)[C@H]2O)cc1Cc1cc2ccccc2s1" : value?
65.2%

Then this compound: "OC[C@H]1O[C@@H](c2cc(Cc3ccc4c(c3)OCCO4)c(O)c3c2OCC3)[C@H](O)[C@@H](O)[C@@H]1F"
30.9%

Would you mind doing "Cc1ccc([C@@H]2O[C@H](CO)[C@@H](F)[C@H](O)[C@H]2O)cc1Cc1cc2c(s1)CCN(C(=O)c1nccs1)C2" as well?
39.5%

Try this compound too: OCC1COc2c(Cc3ccc4c(c3)OCCO4)cc([C@@H]3O[C@H](CO)[C@@H](F)[C@H](O)[C@H]3O)cc21 (some centres unmarked)
61.9%

---

assay system: human SGLT2 (Homo sapiens, UniProt P31639)
Construct: expressed in transfected cells
Sequence (P31639 whole entry): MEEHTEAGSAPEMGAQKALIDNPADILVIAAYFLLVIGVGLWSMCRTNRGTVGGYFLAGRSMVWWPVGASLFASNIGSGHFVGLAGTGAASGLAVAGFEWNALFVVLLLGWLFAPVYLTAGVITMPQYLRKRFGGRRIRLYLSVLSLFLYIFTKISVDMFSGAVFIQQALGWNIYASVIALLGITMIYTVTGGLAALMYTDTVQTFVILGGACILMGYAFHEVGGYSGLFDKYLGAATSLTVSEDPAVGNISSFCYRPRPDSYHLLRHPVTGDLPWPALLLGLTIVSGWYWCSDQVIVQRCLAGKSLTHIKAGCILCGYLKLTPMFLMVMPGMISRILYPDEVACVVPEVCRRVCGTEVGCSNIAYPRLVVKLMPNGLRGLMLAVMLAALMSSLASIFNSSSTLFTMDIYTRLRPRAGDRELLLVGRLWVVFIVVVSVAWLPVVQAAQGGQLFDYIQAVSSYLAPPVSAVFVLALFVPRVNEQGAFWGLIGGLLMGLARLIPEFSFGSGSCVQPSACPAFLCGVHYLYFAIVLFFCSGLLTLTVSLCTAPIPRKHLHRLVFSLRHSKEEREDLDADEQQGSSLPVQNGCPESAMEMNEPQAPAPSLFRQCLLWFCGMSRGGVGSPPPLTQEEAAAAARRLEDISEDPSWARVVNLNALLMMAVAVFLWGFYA
measurement protocol: SGLT2 assay: Na-dependent 14C-AMG uptake in CHO-K1 cells stably expressing human SGLT2
Assay type: cell-based
experimental context: @ 0.3 μM
Procedure: The ability of the compounds of formula (I) of the present invention to treat an SGLT-mediated condition was determined using the following procedures: […] Inhibition of SGLT1 and SGLT2 activity was assessed in CHO K1 cells stably expressing either human SGLT1 or SGLT2, using the SGLT specific glucose analog methyl-glucopyranoside (Sigma Catalog No. M-9376). […] The cells were then solubilized by adding 60 μl of MICROSCINT™20 and the Na-dependent ^14C-AMG uptake was quantified by measuring radioactivity. […]
Each item that follows carries a reported SGLT2 %-inhibition.
Give the number; % @ 0.3 μM is assumed, so skip it.

Example entries begin here.
• COc1cc(C)c(Cc2cc3c(s2)CCN(C(=O)C2CCCC2)C3)cc1[C@@H]1O[C@H](CO)[C@@H](F)[C@H](O)[C@H]1O = 65.5
• Cc1cnc(N2CCc3sc(Cc4cc([C@@H]5O[C@H](CO)[C@@H](F)[C@H](O)[C@H]5O)c(O)cc4C)cc3C2)s1 = 69.9
• CCc1ccc([C@@H]2O[C@H](CO)[C@@H](F)[C@H](O)[C@H]2O)cc1Cc1ccc2c(c1)OC(F)(F)O2 [Compound 158] = 18.0
• COC(=O)N1CCc2sc(Cc3cc([C@@H]4O[C@H](CO)[C@@H](F)[C@H](O)[C@H]4O)ccc3Cl)cc2C1 = 60.4
• COC(=O)N1CCc2sc(Cc3cc([C@@H]4O[C@H](CO)[C@@H](F)[C@H](O)[C@H]4O)c(OC)cc3Cl)cc2C1 = 72.2

May I ask what SGLT2 %-inhibition has been recorded for "COc1cc(Cl)c(Cc2cc3c(s2)CCN(C(C)=O)C3)cc1[C@@H]1O[C@H](CO)[C@@H](F)[C@H](O)[C@H]1O" ?
69.9

Another: "[2H]C1([2H])Oc2ccc(Cc3cc([C@@H]4O[C@H](CO)[C@@H](F)[C@H](O)[C@H]4O)cc4c3CCO4)cc2OC1([2H])[2H]"
85.0

Would you kindly repeat that for CC1(CO)COc2c(Cc3ccc4c(c3)OCCO4)cc([C@@H]3O[C@H](CO)[C@@H](F)[C@H](O)[C@H]3O)cc21 (stereo partly shown) ?
44.8

Now try "Cc1c(Cc2ccc3c(c2)CCCO3)cc([C@@H]2O[C@H](CO)[C@@H](F)[C@H](O)[C@H]2O)c2c1CCO2" .
81.6

Now the same for "CC(=O)N1CCc2sc(Cc3cc([C@@H]4O[C@H](CO)[C@@H](F)[C@H](O)[C@H]4O)c(O)cc3Cl)cc2C1"
65.2

Item: "Cc1cc(N2CCc3sc(Cc4cc([C@@H]5O[C@H](CO)[C@@H](F)[C@H](O)[C@H]5O)ccc4C)cc3C2)c(C)s1"
46.7

Moving on to "COc1cc(O)c([C@@H]2O[C@H](CN)[C@@H](F)[C@H](O)[C@H]2O)cc1Cc1cc2ccccc2s1"
50.3

Check "[2H]C([2H])(c1ccc2c(c1)CCCO2)c1cc([C@@H]2O[C@H](CO)[C@@H](F)[C@H](O)[C@H]2O)ccc1CC" too.
72.7

---

Below: a set of entries, each annotated with reported IC50.
assay system: human SGLT1 (Homo sapiens, UniProt P13866)
measurement protocol: SGLT1 assay: Na-dependent 14C-AMG uptake in CHO-K1 cells stably expressing human SGLT1
experimental context: average if tested more than once
Your answer is read as nM, so omit the unit and give the number.

* COc1cc(O)c([C@@H]2O[C@H](CO)[C@@H](F)[C@H](O)[C@H]2O)cc1Cc1cc2ccccc2s1 [Compound 2] | 9
* OC[C@H]1O[C@@H](c2cc(Cc3ccc4c(c3)OCCO4)c(Cl)c3c2CCO3)[C@H](O)[C@@H](O)[C@@H]1F [Compound 154] | 42
* Cc1cc(O)c([C@@H]2O[C@H](CO)[C@@H](F)[C@H](O)[C@H]2O)cc1Cc1cc2ccccc2s1 [Compound 4] | 14
* [2H]C([2H])([2H])Oc1cc(CC)c(Cc2ccc3c(c2)OCCO3)cc1[C@@H]1O[C@H](CO)[C@@H](F)[C@H](O)[C@H]1O [Compound 182] | 138
* [2H]C([2H])([2H])Oc1c([C@@H]2O[C@H](CO)[C@@H](F)[C@H](O)[C@H]2O)cc(C([2H])([2H])c2ccc3c(c2)OCCO3)c2c1CCO2 [Compound 161] | 52

# get_value(readout='IC50', item= [2H]C1([2H])Oc2ccc(Cc3cc([C@@H]4O[C@H](CO)[C@@H](F)[C@H](O)[C@H]4O)c4c(c3CC)CCO4)cc2OC1([2H])[2H] [Compound 179] )
60

One more molecule: CCc1ccc(Cc2cc([C@@H]3O[C@H](CO)[C@@H](F)[C@H](O)[C@H]3O)c(O)c3c2OCC3)cc1 [Compound 62]
48

Now the same for [2H]C([2H])(c1ccc2c(c1)OCCO2)c1cc([C@@H]2O[C@H](CO)[C@@H](F)[C@H](O)[C@H]2O)c(F)cc1OC [Compound 165]
56

Entry OC[C@H]1O[C@@H](c2cc(Cc3ccc4c(c3)OCCO4)c3c(c2)OCC3)[C@H](O)[C@@H](O)[C@@H]1F [Compound 153] please
50

---

assay system: UniProtKB P31639
measurement protocol: SGLT2 assay: Na-dependent 14C-AMG uptake in CHO-K1 cells stably expressing human SGLT2
experimental context: average if tested more than once
parameter measured: pIC50
On this scale, pIC50 is minus log10 of a concentration expressed in M (mol/L).

Worked set:
- COc1c(Cc2cc3ccccc3s2)cc([C@@H]2O[C@H](CO)[C@@H](F)[C@H](O)[C@H]2O)c(OC)c1C [Compound 15]: 7.17
- OC[C@H]1O[C@@H](c2cc3c(c(Cc4ccc5c(c4)CCCO5)c2)OCC3)[C@H](O)[C@@H](O)[C@@H]1F [Compound 56]: 7.92

Here's the next entry for you.
# pIC50 lookup, item Cc1cc(O)c([C@@H]2O[C@H](C(C)(C)O)[C@@H](F)[C@H](O)[C@H]2O)cc1Cc1cc2ccccc2s1 [Compound 39]
6.91
